- PROTOCOL_NOTES: qHTS assay to identify small molecule antagonists of the estrogen related receptor signaling pathway with the pleiotropic PPARgamma coactivator (PGC) from Tox21 10K library - cell viability counter screen (AID 1224840); also: nearly all actives have a fitted effect of over 40% in size
- STUDY_CONDITIONS: PGC/ERR reporter cells viability, CellTiter-Fluor, 17.5 h; series mostly up to 92.4 µM
Records with an inconclusive call do not appear. Calls of active or inactive are those of the source. Calls follow the shape of the dose curve; as a rule, active = well fitted cell-killing curve with a large enough effect in the repeat runs (not every such curve was filed as active); inconclusive = weak or mixed curves, or effect the other way; inactive = no such curve, though single readings can be large or run the other way.
Labels: active, inactive

COMPOUND	LABEL_VALUE
CCCCN(CCCC)C(C(N)=O)c1ccc(OC)cc1 (centres undefined)	inactive
CO[C@]1(NC(=O)CSC(F)F)C(=O)N2C(C(=O)O)=C(CSc3nnnn3CCO)CO[C@H]21	inactive
O=C(/C=C/c1ccc(O)c(O)c1)O[C@@H]1C[C@@](OC(=O)/C=C/c2ccc(O)c(O)c2)(C(=O)O)C[C@@H](O)[C@@H]1O	inactive
O=C1c2ccccc2C(=O)C1c1nc2ccccc2c(Br)c1O	inactive
CC(CCC(=O)O)C(=O)O (centres undefined)	inactive
CC1(C)O[C@@H]2C[C@H]3[C@@H]4C[C@H](F)C5=CC(=O)C=C[C@]5(C)[C@H]4[C@@H](O)C[C@]3(C)[C@]2(C(=O)CO)O1	inactive
C=COCC(C)C	inactive
C=CC(=O)OCC1CC2CC1C1CCC(COC(=O)C=C)C21 (centres undefined)	active
c1cc(N(CC2CO2)CC2CO2)ccc1Cc1ccc(N(CC2CO2)CC2CO2)cc1 (centres undefined)	active
O=C1NCCN1CCO	inactive
Brc1cc(Br)c(Oc2cc(Br)c(Br)cc2Br)cc1Br	inactive
O=C1C(=O)c2ccccc2C(O)=C1C1CCC(c2ccc(Cl)cc2)CC1 (centres undefined)	inactive
CCCCCCCCCCCCCCN(CCO)CCO	active
CCOC(=O)C1=C(C)NC(C)=C(C(=O)OC)C1c1cccc(Cl)c1Cl (centres undefined)	inactive
NC1[C@H]2CN(c3nc4c(cc3F)c(=O)c(C(=O)O)cn4-c3ccc(F)cc3F)C[C@@H]12 (some centres undefined)	inactive
CCCCN1CCCC1C(=O)Nc1c(C)cc(C)cc1C (centres undefined)	inactive
CC(C)COCC(CN(Cc1ccccc1)c1ccccc1)N1CCCC1 (centres undefined)	active
Oc1cc2c(cc1O)[C@H]1c3ccc(O)c(O)c3OC[C@@]1(O)C2	active
Cc1ccccc1N=C(N)Nc1ccccc1C	inactive
Oc1cccc(Nc2ccccc2)c1	inactive
CC(C)C=O	inactive
CCOC(=O)/C=C/C(=O)OCC	inactive
O=C(CCCN1CC=C(n2c(=O)[nH]c3ccccc32)CC1)c1ccc(F)cc1	inactive
O=C(OCC(O)CO)c1ccccc1Nc1ccnc2cc(Cl)ccc12 (centres undefined)	inactive

---

- PROTOCOL_NOTES: qHTS assay for small molecule disruptors of the mitochondrial membrane potential (AID 720635)
- STUDY_CONDITIONS: HepG2 mitochondrial membrane potential, Mito-MPS dye ratio; series mostly up to 83.2 µM
Results filed as inconclusive are left out. Active and inactive are the calls of the source. Calls follow the shape of the dose curve; as a rule, active = well fitted inhibition curve with a large enough effect in the signal ratio in the repeat runs; inconclusive = weak or mixed curves, or effect the other way; inactive = flat fitted curve, though single readings scatter; the % refers to the signal ratio.
Outcome codes: YES (active), NO (inactive)

SMILES_TEXT	LABEL_VALUE
CCN(CC)CCNC(=O)COc1ccc(OC)cc1	NO
CO[C@]1(NC(=O)CSC(F)F)C(=O)N2C(C(=O)O)=C(CSc3nnnn3CCO)CO[C@H]21	NO
C=C(C)C(=O)OCCCCCCCCCCCCC	NO
O=[N+]([O-])c1ccc(O/N=C/c2cc(Br)c(O)c(Br)c2)c([N+](=O)[O-])c1	YES
COC(=O)C1=C(C)NC(C)=C(C(=O)O[C@@H]2CCCN(Cc3ccccc3)C2)[C@@H]1c1cccc([N+](=O)[O-])c1	YES
Nc1ncnc2c1ncn2[C@H]1CC[C@@H](CO)O1	NO
O=C(CCCN1CC=C(n2c(=O)[nH]c3ccccc32)CC1)c1ccc(F)cc1	NO
N#CCCN(CCO)CCO	NO
CCCCCC#CC(=O)OC	NO
O=C(CCc1ccc(O)cc1)c1c(O)cc(O)cc1O	YES
C=C1C[C@@]23CC[C@H]4[C@@](C)(CCC[C@@]4(C)C(=O)O[C@@H]4O[C@H](CO)[C@@H](O)[C@H](O)[C@H]4O)[C@@H]2CC[C@]1(O[C@@H]1O[C@H](CO)[C@@H](O)[C@H](O[C@@H]2O[C@H](CO)[C@@H](O)[C@H](O)[C@H]2O)[C@H]1O[C@@H]1O[C@H](CO)[C@@H](O)[C@H](O)[C@H]1O)C3	NO
CC(C)Nc1cccnc1N1CCN(C(=O)c2cc3cc(NS(C)(=O)=O)ccc3[nH]2)CC1	YES
CCOC(=O)/C=C/C(=O)OCC	NO
O=C1c2ccccc2C(=O)C1c1nc2ccccc2c(Br)c1O	YES
CC1(C)[C@@H](OC(=O)CCC(=O)O)CC[C@]2(C)[C@H]3C(=O)C=C4[C@@H]5C[C@@](C)(C(=O)O)CC[C@]5(C)CC[C@@]4(C)[C@]3(C)CC[C@@H]12	NO
CC(C)(O)c1ccc(CNC(=O)c2cccnc2Oc2ccc3nonc3c2)cc1	NO
